System: OVCAR-4 ovarian
Test Description: NCI-60 one-dose screen, 48 h (100 = growth as untreated, 0 = no growth, -100 = all killed)
Applied Conditions: 10 µM unless noted
About 83,000 compounds went through this panel and 20% of them were active in at least one assay; those are over-represented in the sample as a whole.
Could you please report measured growth for the items listed next?
Give bare numbers, in %.

Examples from the recorded data:
Answer with the recorded growth of `O=C1c2cccc3cccc(c23)C(=O)N1CC#Cc1ccc2c3c(cccc13)C(=O)N(CCN1CCNCC1)C2=O` only. 85.3

Answer with the recorded growth of `OCC(CO)(CCl)CCl` only. 109

Answer with the recorded growth of `O=S(=O)(NCCNc1cc(-c2cn(-c3ccccc3)nc2-c2cccc(O)c2)ccn1)c1cccc(F)c1` only. 39.4

Provide each entry's growth from the list below.
1. CCOC(=O)C1OC1(c1ccccc1)c1ccccc1 (stereo not drawn)
2. COC(=O)[C@]12CC[C@@H](C)[C@H](C)[C@@H]1C1=CC(=O)[C@@H]3[C@@]4(C)C[C@@H](OC(C)=O)[C@H](OC(C)=O)[C@@](C)(COC(C)=O)[C@@H]4C(=O)C[C@@]3(C)[C@]1(C)CC2
3. Cc1cc(N(CCCNc2ccnc3cc(Cl)ccc23)Cc2ccco2)nc(N2CCN(C)CC2)n1
4. Cc1ccc(-c2nn(Cc3cn(-c4cc(C)nc5ccccc45)nn3)c3ncnc(N)c23)cc1
5. CC1(C)NCCC[C@]2(C)[C@H]3CC[C@@H]4[C@H]5[C@H](C(=O)/C=C/c6ccccn6)CC[C@]5(CO)CC[C@@]4(C)[C@]3(C)CC[C@@H]12
6. Cc1ccc(-c2nc([P+](c3ccccc3)(c3ccccc3)c3ccccc3)c(N3C[C@H]4C[C@H](C3)c3cccc(=O)n3C4)o2)cc1

1. 121
2. 60.4
3. 57
4. 51.7
5. 35.9
6. 77.3

Provide each entry's growth from the list below.
1. O=S(=O)(NCCNc1cc(-c2cn(-c3ccccc3)nc2-c2cccc(O)c2)ccn1)c1ccccc1
2. COc1ccc(/C=C(\C#N)c2cc3ccccc3n2C(C)=O)cc1

1. 56.3
2. 96.5

Provide each entry's growth from the list below.
1. CCOC(=O)N1CCN(CCCCOc2ccc(C(C)(C)CC)cc2)CC1
2. c1cnc2[nH]cc(-c3csc(-c4cn(CCCN5CCCCC5)c5ccccc45)n3)c2c1
3. CC(=O)NC1=C(C#N)C(c2ccccc2Cl)c2c(ccc3ccccc23)O1 (stereo not drawn)
4. O=C1/C(=C\c2ccc(Br)o2)SC(=S)N1CCc1ccc(O)cc1
5. CN1CCN(CCOc2ccc(-c3cnc4c(-c5cccc(F)c5)cnn4c3)cc2)CC1
6. O=C1C(=O)N(CCCCn2cc(-c3ccccc3)nn2)c2ccccc21
7. COc1ccc2nc(-c3c(-c4ccccc4)nc4ncccn34)[nH]c2c1

1. 93.8
2. 75.7
3. 88.8
4. 65.3
5. 65.5
6. 106
7. 93.2
